Cited source for all entries: ChEMBL document CHEMBL1201862

In this section, each of the compounds is paired with its reported GI50.
System: HOP-62
test.description: NCI tumour cell line growth inhibition, 48 h
Active and inactive are the calls of the source. No stated cut-off is given here; in the data, active = GI50 up to about 1.1 µM and inactive = higher.

# annotated cases, reported GI50 shown
compound | value.reported
COC(=O)C(CC(=O)Nc1ccc(Cl)c(Cl)c1)C(=O)C(=O)Nc1ccc(Cl)c(Cl)c1 (stereo not given) | > 100 µM (inactive)
CC#CC(OCC)(OCC)OCC | > 100 µM (inactive)
CC/C(=N/O)c1ccc2[nH]c3c(C)cc([N+](=O)[O-])c(C)c3c2c1 | 44 µM (inactive)
CC(=O)Oc1cccc2c1C(=O)CCCC2 | > 100 µM (inactive)
CN(C)CC/[N+]([O-])=C(/c1ccccc1)C12CC3CC(CC(C3)C1)C2 | 14.8 µM (inactive)
N#Cc1cccc(NC(=O)c2ccc(C(=O)O)c(C(=O)c3ccc(C(=O)O)c(C(=O)Nc4cccc(C#N)c4)c3)c2)c1 | > 100 µM (inactive)

Which measured GI50 value corresponds to CCOC(=O)/C(=C/c1ccc(C(=O)OC)cc1)N(CC)CC ? 51.6 µM (inactive)

Now this one: COC(=O)[C@@H](NC(=O)N(CCC#N)CCCN(C(=O)N[C@H](Cc1ccccc1)C(=O)OC)c1ccccc1)C(C)C > 100 µM (inactive)

Now this one: O=C1OC(O)C(Oc2ccc(Cl)cc2)=C1Cl (stereo not given) > 100 µM (inactive)

Now this one: NC(=O)C(NC=O)c1ccccc1 (stereo not given) > 100 µM (inactive)

###

Tested on: SF-295
test.description: NCI tumour cell line growth inhibition, 48 h
Calls of active or inactive are those of the source. Rule as the data show it: active = GI50 up to about 1.1 µM and inactive = higher.
In this section, each of the compounds is paired with its reported GI50.

# annotated cases, reported GI50 shown
compound | property.label | value.reported
CCOC(=O)/C(C#N)=C\Sc1ccccc1 | GI50 | 20 µM (inactive)
CN1c2ccc(O)c(O)c2-c2cc(O)cc3c2C1CCC3 (stereo not given) | GI50 | 57.7 µM (inactive)

Which measured GI50 value corresponds to O=S(=O)(O)c1cc(/N=N/c2cc(S(=O)(=O)O)c3ccccc3c2O)ccc1/C=C/c1ccc(/N=N/c2cc(S(=O)(=O)O)c3ccccc3c2O)cc1S(=O)(=O)O ? > 462 µM (inactive)

Now this one: CCN(CC)C(=O)c1cccc2c(OC)ccc(OC)c12 > 100 µM (inactive)

Now this one: COC1=C(N=[N+]=[N-])C(=O)c2ncccc2C1=O 15.6 µM (inactive)

Now this one: COC(=O)CC1(O)C(C=C(C)C)C(C(=O)OC)C(=O)C(C(=O)OC)C1C(=O)OC (stereo not given) > 100 µM (inactive)

Now this one: COc1cc(OC)c(C2c3cc4c(cc3OC(N3CCCC3)C2C)OCO4)c(OC)c1 (stereo not given) 8.97 µM (inactive)

Now this one: NC(=O)C12C3C4C1C1C2C3C41C(N)=O (stereo not given) > 100 µM (inactive)

Now this one: Cn1c2nc3ccccc3c-2cc2ccccc21 [NEOCRYPTOLEPINE] 4.59 µM (inactive)

Now this one: CC[C@@H]1CC[C@@H]2[C@H](CC[C@]3(C)[C@@H](O)CC[C@@H]23)[C@H]1CO 77.3 µM (inactive)

###

Tested on: ACHN
test.description: NCI tumour cell line growth inhibition, 48 h
Activity calls are given as the source filed them. Cut-off read from the data, not from the text of the source: active = GI50 up to about 1.1 µM and inactive = higher.
In this section, each of the compounds is paired with its reported GI50.

compound | experimental.target | property.label | value.reported
Cc1ccc(S(=O)(=O)NCCSS(=O)(=O)c2ccc(C)cc2)cc1 | ACHN | GI50 | 32.8 µM (inactive)

Which measured GI50 value corresponds to CC[C@@]1(C)CCC2c3ccc(O)cc3CC[C@H]2C1C (stereo partly specified) ? 18.2 µM (inactive)

Now this one: C=C1[C@H](OCC(C)C)[C@@H](OCC(C)C)[C@@H](O)C(C)(C)/C=C/[C@H](C)C(=O)[C@@]2(O)C[C@H](C)[C@H](O)[C@@H]2[C@H]1OCC(C)C > 7.5 µM (inactive)

Now this one: C[Si](C)(C)/C(Br)=C\CCN1C(=O)CCC1=O > 100 µM (inactive)

Now this one: NCCCN(CCCN(C(=O)Nc1ccccc1)c1ccccc1)C(=O)Nc1ccccc1 55.7 µM (inactive)

Now this one: CC#CC(OCC)(OCC)OCC > 100 µM (inactive)

###

In this section, each of the molecules is paired with its reported GI50.
Tested on: SK-MEL-2
test.description: NCI tumour cell line growth inhibition, 48 h
Calls of active or inactive are those of the source. Cut-off read from the data, not from the text of the source: active = GI50 up to about 1.1 µM and inactive = higher.

# annotated cases, reported GI50 shown
molecule | value.reported
O=C1NC(=O)C(C(CC(=O)c2ccc([N+](=O)[O-])cc2)c2ccccc2)C(=O)N1 (stereo not given) | > 100 µM (inactive)
Cc1c(C(=O)c2ccc(N)c3ccccc23)c2ccccc2n1CCN1CCOCC1 | 18.6 µM (inactive)
CC1(C)C(=NNC(=S)NN)C(C)(C)C1=NNC(=S)NN | > 100 µM (inactive)
COc1cc(/C=C2\[C@H]3c4c(c(OC)c(C)c(OC)c4OC)C[C@@H](C(=O)N2Cc2ccccc2)N3C(=O)OC(C)C)c(OC)c(C)c1OC | > 100 µM (inactive)
CC1=NN(c2cccc(Cl)c2)C2(SCC(=O)N2c2nc3ccccc3s2)C1=CC=Cc1ccccc1 (stereo not given) | 21.7 µM (inactive)
O=CC(NC(=O)N(CCCl)N=O)C(O)C(O)C(O)CO (stereo not given) | 718 µM (inactive)
COc1ccc(/C=N/NS(=O)(=O)c2ccc(/C=C3\NC(=O)N(C)C3=O)cc2)cc1 | > 100 µM (inactive)
c1ccc(Cc2cccc3cc(-c4ccc(-c5ccccc5)cc4)[nH]c23)cc1 | > 100 µM (inactive)
Cc1cccc2c(=O)c3c(O)cc(O)cc3n(C)c12 | > 100 µM (inactive)

Now turn to the next molecule.
Which measured GI50 value corresponds to CCOc1ccc(NC(=S)N/C=C(/C(C)=O)C(=O)Nc2ccccc2C)cc1 ? > 100 µM (inactive)

###

Test system: UACC-257
test.description: NCI tumour cell line growth inhibition, 48 h
The source made the active and inactive calls. No stated cut-off is given here; in the data, active = GI50 up to about 1.1 µM and inactive = higher.
property.label: GI50

# annotated cases, reported GI50 shown
compound | value.reported
CCCCCCCC(CC(=O)NC(CO)C(=O)NC(CO)CC(C)C)OC(=O)CC(CCCCCCC)OC(=O)CC(CCCCCCC)OC1OC(C)C(O)C(OC2OC(C)C(OC(C)=O)C(O)C2O)C1O (stereo not drawn) | 2.22 µM (inactive)
COC(=O)N/N=C(\C)C(CN1CCOCC1)C(c1ccccc1)c1cc2ccccc2oc1=O (stereo not drawn) | 82.4 µM (inactive)
Nc1ccc(C(=O)/C=C/c2ccccc2O)cc1 | > 100 µM (inactive)

Which measured GI50 value corresponds to O=C1NC(=O)C(C(CC(=O)c2ccc([N+](=O)[O-])cc2)c2ccccc2)C(=O)N1 (stereo not drawn) ? > 100 µM (inactive)

Now this one: N=C1N(S(=O)(=O)c2ccccc2)[C@@H](Cc2ccccc2)[C@H](c2ccccc2)C1(c1ccccc1)c1ccccc1 35.6 µM (inactive)

Now this one: C/C(=N\NC(=S)NCCCCNC(=S)N/N=C(\C)c1ccccn1)c1ccccc1 1.78 µM (inactive)

Now this one: O=C(CC(=O)C1CCOC1=O)C(=O)Nc1ccc(Cl)cc1 (stereo not drawn) > 100 µM (inactive)

Now this one: C[C@]12CC[C@@H]3c4ccc(O)cc4CC[C@H]3[C@@H]1CC[C@@H]2OC(=O)CCc1ccccc1 17.9 µM (inactive)

###

System: U-251
test.description: NCI tumour cell line growth inhibition, 48 h
Calls of active or inactive are those of the source. Cut-off read from the data, not from the text of the source: active = GI50 up to about 1.1 µM and inactive = higher.
In this section, each of the compounds is paired with its reported GI50.

# annotated cases, reported GI50 shown
compound | experimental.target | GI50
O=S(=O)(O)c1cc(/N=N/c2cc(S(=O)(=O)O)c3ccccc3c2O)ccc1/C=C/c1ccc(/N=N/c2cc(S(=O)(=O)O)c3ccccc3c2O)cc1S(=O)(=O)O | U-251 | > 716 µM (inactive)
COc1ccc(C2CC(c3cc4c(C)c(C(=O)c5ccccc5)oc4cc3O)=Nc3ccccc3S2)cc1OC (stereo not given) | U-251 | > 65 µM (inactive)
O=C1CCCC/C1=C1\C(=O)Nc2cc(F)ccc21 | U-251 | > 100 µM (inactive)

Fill in the recorded GI50 for this compound, with U-251 as test system: NC(CC(O)(c1ccccc1)c1ccccc1)c1ccccc1S (stereo not given) 15.1 µM (inactive)

Now this one: CCc1cc2c(oc3cc(C)ccc32)c(=O)n1C > 10 µM (inactive)

###

Test system: HOP-62
test.description: NCI tumour cell line growth inhibition, 48 h
Activity calls are given as the source filed them. Rule as the data show it: active = GI50 up to about 1.1 µM and inactive = higher.
Give your call using only these classes: active, inactive

Recorded test call requested for c1ccc2c(c1)c1c(n2CCOCCN2CCOCC2)CCCC1 inactive

Now this one: CC(C)CCCCCCCCCCCCC(=O)NCC(=O)NC1C(C)OC(Nc2[nH]cnc3ncnc2-3)C(O)C1O (stereo unspecified) active

Now this one: O=C(O)c1cccc2c1/C(=N/Nc1ccccc1)CC2 inactive

Now this one: O=C(O)/C(=C\c1ccccc1Cl)S(=O)(=O)c1ccccc1 inactive

Now this one: Cc1cc(-c2nc3c(F)cccc3s2)ccc1N inactive

Now this one: CC1=C(C(=O)Nc2ccccc2C)C(c2ccccc2O)C(C(=O)Nc2ccccc2C)=C(C)N1 inactive
